measure name: melting point (°C)

Query: Consider the molecule CC(C)(O)c1cnn2c(-c3cccc(-c4ccc(F)cc4C#N)c3)cnc2n1 and give its recorded melting point.
Reply: 175

Query: Provide one value: measured melting point of CC(C)(O)c1cnn2c(-c3ccc(F)c(-c4ccc(F)cc4C#N)c3)cnc2n1
Reply: 215
